These data points were gathered from patent US10344026B2.

Exercise: for every item that follows, state its recorded IC50.
Test system: Ishikawa (K-Ras wild type cell line)
Assay: Viability assay (CellTiterBlue, 72 hr) Ishikawa
Type: cell-based
Details: Homo sapiens, GI50, CellTiterBlue, Ishikawa K-Ras wild-type
Method: Viability assays were performed on exemplary compounds and Table 2 below lists exemplary results for selected compounds tested on K-Ras wild type cell lines (Ishikawa, U87-MG, HCC827, and A375) and various K-Ras mutant cell lines (Panc1-G12D; Panc10.05-G12D; HCT116-G31D). […] Cells are counted and seeded at 1000 cells/36 ul medium/well into 384-well microplates. […] After 3 hr, fluorescence (Ex550/Em590) is determined on the Victor Plate Reader (Perkin Elmer). […]

Incoming: Suppose we examine the molecule Cc1nn(C)c(C)c1C(=O)Nc1nc(-c2ccc3c(c2)CCC(=O)N3)cs1 ; what IC50 value has been reported?
Outgoing: > 25 µM

Incoming: Suppose we examine the molecule Cc1nn(C(C)(C)C)c(C)c1C(=O)Nc1nc(-c2ccc3c(c2)CCC(=O)N3)cs1 ; what IC50 value has been reported?
Outgoing: > 25 µM

Incoming: Suppose we examine the molecule CC(C)c1cc(C(=O)Nc2nc(-c3ccc4c(c3)CCC(=O)N4)cs2)n(C)n1 ; what IC50 value has been reported?
Outgoing: > 25 µM

Incoming: Suppose we examine the molecule Cn1nc(C(C)(C)C)cc1C(=O)Nc1nc(-c2ccc3c(c2)CCC(=O)N3)cs1 ; what IC50 value has been reported?
Outgoing: > 25 µM

Incoming: Suppose we examine the molecule CCc1nc(C)c(C(=O)Nc2nc(-c3ccc4c(c3)CCC(=O)N4Cc3cccnc3)cs2)s1 ; what IC50 value has been reported?
Outgoing: > 25 µM

Incoming: Suppose we examine the molecule Cc1nc(C(C)C)sc1C(=O)Nc1nc(-c2ccc3c(c2)CCC(=O)N3)cs1 ; what IC50 value has been reported?
Outgoing: > 25 µM

Incoming: Suppose we examine the molecule COc1cc(CN2C(=O)CCc3cc(-c4csc(NC(=O)c5oc(C)nc5C)n4)ccc32)cc(OC)c1 ; what IC50 value has been reported?
Outgoing: > 25 µM

Incoming: Suppose we examine the molecule Cc1nc(C2CCCCC2)sc1C(=O)Nc1nc(-c2ccc3c(c2)CCC(=O)N3)cs1 ; what IC50 value has been reported?
Outgoing: > 25 µM

Incoming: Suppose we examine the molecule CCn1ncc(C(=O)Nc2nc(-c3ccc4c(c3)CCC(=O)N4)cs2)c1C1CC1 ; what IC50 value has been reported?
Outgoing: > 25 µM

Incoming: Suppose we examine the molecule Cc1nc(C)c(C(=O)Nc2nc(-c3ccc4c(c3)CCC(=O)N4CCN(C)C)cs2)o1 ; what IC50 value has been reported?
Outgoing: > 25 µM

Incoming: Suppose we examine the molecule Cc1nc(C)c(C(=O)Nc2nc(-c3ccc4c(c3)CCC(=O)N4Cc3cccc4ccccc34)cs2)o1 ; what IC50 value has been reported?
Outgoing: > 25 µM

Incoming: Suppose we examine the molecule Cn1cc(C(=O)Nc2nc(-c3ccc4c(c3)CCC(=O)N4)cs2)cn1 ; what IC50 value has been reported?
Outgoing: > 25 µM

Incoming: Suppose we examine the molecule CCn1nccc1C(=O)Nc1nc(-c2ccc3c(c2)CCC(=O)N3)cs1 ; what IC50 value has been reported?
Outgoing: > 25 µM

Incoming: Suppose we examine the molecule Cc1nc(C)c(C(=O)Nc2nc(-c3ccc4c(c3)CCC(=O)N4)c(Cl)s2)s1 ; what IC50 value has been reported?
Outgoing: > 25 µM

Incoming: Suppose we examine the molecule Cc1nn(-c2ccc(F)cc2)c(C)c1C(=O)Nc1nc(-c2ccc3c(c2)CCC(=O)N3)cs1 ; what IC50 value has been reported?
Outgoing: > 25 µM

Incoming: Suppose we examine the molecule Cc1nc(C)c(C(=O)Nc2nc(-c3ccc4c(c3)CCC(=O)N4CCC(=O)N(C)C)cs2)o1 ; what IC50 value has been reported?
Outgoing: > 25 µM

Incoming: Suppose we examine the molecule COc1cccc(CN2C(=O)CCc3cc(-c4csc(NC(=O)c5oc(C)nc5C)n4)ccc32)c1OC ; what IC50 value has been reported?
Outgoing: > 25 µM

Incoming: Suppose we examine the molecule Cn1nc(-c2ccccc2)cc1C(=O)Nc1nc(-c2ccc3c(c2)CCC(=O)N3)cs1 ; what IC50 value has been reported?
Outgoing: > 25 µM
